Every entry's value here was drawn from patent US20210047431A1.

target: T1, recombinant human sPLA2-GIB (mature secreted form of group IB pancreatic phospholipase A2) (human, UniProt P04054 23-148); assay: indirect ELISA, coated antigen
T1 construct: Genbank NP_000919 printed for human PLA2-GIB; also called sPLA2-IB; mature sPLA2-GIB
T1 sequence (P04054 23-148): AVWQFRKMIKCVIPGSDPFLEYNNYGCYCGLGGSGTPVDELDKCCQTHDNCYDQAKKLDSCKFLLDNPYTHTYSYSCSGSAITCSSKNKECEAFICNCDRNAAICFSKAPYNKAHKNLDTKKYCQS

binder: #1C11 (antibody, IgG1, V domains shown, also called monoclonal antibody 1C11; #1C11 mAb) VH: EVKLQESGPELVKPGASVKISCKVSGYAFSSFWMNWVKQRPGKGLEWIGRIYPGDGDINYNGKFKGKATLTADKSSSTAYMQLSSLTSEDSAVYFCVRGWAWFPYWGQGTLVTVSA VL: EIVLTQSPAITSASLGQRVTISCSATSSVSYVHWYQQKSGTSPKPWIYEISRLASGVPARFSGSGSGTSYSLTISTMEAEDAAIYYCQSWNFPLLSFGAGTKLELKR
unit_string: nM
EC50: 3
